METHOD_NOTES: in vitro
CONDITION_DESCRIPTION: cat
MEASURED_PROPERTY: log10 CC50 at 48 h (log10 of the value in µg/mL)

>  <COMPOUND>
COc1ccc(-c2cc(=O)c3c(O)cc(O[C@@H]4O[C@H](CO[C@@H]5O[C@@H](C)[C@H](O)[C@@H](O)[C@H]5O)[C@@H](O)[C@H](O)[C@H]4O)cc3o2)cc1O

>  <log10 CC50 at 48 h>
2.65

$$$$
>  <COMPOUND>
C[C@@H]1O[C@@H](O[C@@H]2[C@@H](O)[C@H](OCCc3ccc(O)c(O)c3)O[C@H](CO)[C@H]2OC(=O)/C=C/c2ccc(O)c(O)c2)[C@H](O)[C@H](O)[C@H]1O [Verbascoside]

>  <log10 CC50 at 48 h>
1.90

$$$$
>  <COMPOUND>
O=C1c2c(O)cc(O)cc2O[C@H](c2cc(O)c(O)c(O)c2)[C@H]1O [Dihydromyricetin]

>  <log10 CC50 at 48 h>
0.51

$$$$
>  <COMPOUND>
O=C(O)c1cc(O)c2c(c1)[C@H]([C@H]1c3cc(C(=O)O)cc(O)c3C(=O)c3c(O[C@@H]4O[C@H](CO)[C@@H](O)[C@H](O)[C@H]4O)cccc31)c1cccc(O[C@@H]3O[C@H](CO)[C@@H](O)[C@H](O)[C@H]3O)c1C2=O [Sennoside A]

>  <log10 CC50 at 48 h>
2.12

$$$$
>  <COMPOUND>
O=C(O)[C@H]1O[C@@H](Oc2cc3oc(-c4ccccc4)cc(=O)c3c(O)c2O)[C@H](O)[C@@H](O)[C@@H]1O

>  <log10 CC50 at 48 h>
1.82

$$$$
>  <COMPOUND>
O=C(O)[C@H]1O[C@@H](Oc2cc3oc(-c4ccc(O)cc4)cc(=O)c3c(O)c2O)[C@H](O)[C@@H](O)[C@@H]1O

>  <log10 CC50 at 48 h>
2.27

$$$$
>  <COMPOUND>
O=C1O[C@H]2[C@@H]3OC(=O)c4cc(O)c(O)c(O)c4-c4c(O)c(O)c5oc(=O)c6c(c(O)c(O)c7oc(=O)c4c5c76)-c4c(cc(O)c(O)c4O)C(=O)OC[C@H]3OC(O)[C@@H]2OC(=O)c2cc(O)c(O)c(O)c2-c2c1cc(O)c(O)c2O (mixture of isomers)

>  <log10 CC50 at 48 h>
0.52

$$$$
>  <COMPOUND>
C=CCS[S+]([O-])CC=C (stereo not shown)

>  <log10 CC50 at 48 h>
1.93

$$$$
>  <COMPOUND>
O=c1c(O[C@@H]2O[C@H](CO)[C@@H](O)[C@H](O)[C@H]2O)c(-c2ccc(O)c(O)c2)oc2cc(O)cc(O)c12

>  <log10 CC50 at 48 h>
2.46

$$$$

* * *

EXPERIMENTAL_TARGET: FHV-1 gB (Feline herpesvirus 1, UniProt Q86665)
METHOD_NOTES: biochemical
Assay type: binding, feline herpesvirus-1 (FHV-1)
CONDITION_DESCRIPTION: read-out: Kdis (rate of dissociation)

>  <COMPOUND>
O=C1c2c(O)cc(O)cc2O[C@H](c2cc(O)c(O)c(O)c2)[C@H]1O [Dihydromyricetin]

>  <EXPERIMENTAL_TARGET>
FHV-1 gB (Feline herpesvirus 1, UniProt Q86665)

>  <UOM>
s⁻¹

>  <CMP>
=

>  <koff>
0.00506

$$$$
>  <COMPOUND>
C=CCS[S+]([O-])CC=C (stereo not shown)

>  <EXPERIMENTAL_TARGET>
FHV-1 gB (Feline herpesvirus 1, UniProt Q86665)

>  <UOM>
s⁻¹

>  <CMP>
=

>  <koff>
0.00299

$$$$
>  <COMPOUND>
O=c1c(O[C@@H]2O[C@H](CO)[C@H](O)[C@H](O)[C@H]2O)c(-c2ccc(O)c(O)c2)oc2cc(O)cc(O)c12 [Hyperoside]

>  <EXPERIMENTAL_TARGET>
FHV-1 gB (Feline herpesvirus 1, UniProt Q86665)

>  <UOM>
s⁻¹

>  <CMP>
=

>  <koff>
0.00683

$$$$
>  <COMPOUND>
O=C(/C=C/c1ccc(O)c(O)c1)O[C@@H]1C[C@@](OC(=O)/C=C/c2ccc(O)c(O)c2)(C(=O)O)C[C@@H](O)[C@@H]1O

>  <EXPERIMENTAL_TARGET>
FHV-1 gB (Feline herpesvirus 1, UniProt Q86665)

>  <UOM>
s⁻¹

>  <CMP>
=

>  <koff>
0.00596

$$$$
>  <COMPOUND>
COc1ccc(-c2cc(=O)c3c(O)cc(O[C@@H]4O[C@H](CO[C@@H]5O[C@@H](C)[C@H](O)[C@@H](O)[C@H]5O)[C@@H](O)[C@H](O)[C@H]4O)cc3o2)cc1O

>  <EXPERIMENTAL_TARGET>
FHV-1 gB (Feline herpesvirus 1, UniProt Q86665)

>  <UOM>
s⁻¹

>  <CMP>
=

>  <koff>
0.034

$$$$
>  <COMPOUND>
O=C(C=Cc1ccc(O)c(O)c1)OC1CC(O)(C(=O)O)CC(O)C1OC(=O)C=Cc1ccc(O)c(O)c1 (stereo not shown)

>  <EXPERIMENTAL_TARGET>
FHV-1 gB (Feline herpesvirus 1, UniProt Q86665)

>  <UOM>
s⁻¹

>  <CMP>
=

>  <koff>
0.0652

$$$$
>  <COMPOUND>
O=c1c(O[C@@H]2O[C@H](CO)[C@@H](O)[C@H](O)[C@H]2O)c(-c2ccc(O)c(O)c2)oc2cc(O)cc(O)c12

>  <EXPERIMENTAL_TARGET>
FHV-1 gB (Feline herpesvirus 1, UniProt Q86665)

>  <UOM>
s⁻¹

>  <CMP>
=

>  <koff>
0.0179

$$$$
>  <COMPOUND>
O=C1OC[C@H]2OC(O)[C@H](O)[C@@H](O)[C@@H]2OC(=O)c2cc(O)c(O)c(O)c2-c2c(O)c(O)c3oc(=O)c4c(c(O)c(O)c5oc(=O)c2c3c54)-c2c1cc(O)c(O)c2O (mixture of isomers)

>  <EXPERIMENTAL_TARGET>
FHV-1 gB (Feline herpesvirus 1, UniProt Q86665)

>  <UOM>
s⁻¹

>  <CMP>
<

>  <koff>
1e-07

$$$$
>  <COMPOUND>
O=C1O[C@H]2[C@@H]3OC(=O)c4cc(O)c(O)c(O)c4-c4c(O)c(O)c5oc(=O)c6c(c(O)c(O)c7oc(=O)c4c5c76)-c4c(cc(O)c(O)c4O)C(=O)OC[C@H]3OC(O)[C@@H]2OC(=O)c2cc(O)c(O)c(O)c2-c2c1cc(O)c(O)c2O (mixture of isomers)

>  <EXPERIMENTAL_TARGET>
FHV-1 gB (Feline herpesvirus 1, UniProt Q86665)

>  <UOM>
s⁻¹

>  <CMP>
<

>  <koff>
1e-07

$$$$
>  <COMPOUND>
O=C(O)[C@H]1O[C@@H](Oc2cc3oc(-c4ccccc4)cc(=O)c3c(O)c2O)[C@H](O)[C@@H](O)[C@@H]1O

>  <EXPERIMENTAL_TARGET>
FHV-1 gB (Feline herpesvirus 1, UniProt Q86665)

>  <UOM>
s⁻¹

>  <CMP>
=

>  <koff>
0.922

$$$$

* * *

EXPERIMENTAL_TARGET: FHV-1 gB (Feline herpesvirus 1)
METHOD_NOTES: biochemical
Format: binding, feline herpesvirus-1 (FHV-1)
CONDITION_DESCRIPTION: read-out: Kdis (rate of dissociation)

>  <COMPOUND>
O=C(O)[C@H]1O[C@@H](Oc2cc3oc(-c4ccc(O)cc4)cc(=O)c3c(O)c2O)[C@H](O)[C@@H](O)[C@@H]1O

>  <EXPERIMENTAL_TARGET>
FHV-1 gB (Feline herpesvirus 1)

>  <CMP>
=

>  <koff (s⁻¹)>
0.00875

$$$$
>  <COMPOUND>
C[C@@H]1O[C@@H](O[C@@H]2[C@@H](O)[C@H](OCCc3ccc(O)c(O)c3)O[C@H](CO)[C@H]2OC(=O)/C=C/c2ccc(O)c(O)c2)[C@H](O)[C@H](O)[C@H]1O [Verbascoside]

>  <EXPERIMENTAL_TARGET>
FHV-1 gB (Feline herpesvirus 1)

>  <CMP>
=

>  <koff (s⁻¹)>
0.00729

$$$$
>  <COMPOUND>
O=C(O)c1cc(O)c2c(c1)[C@H]([C@H]1c3cc(C(=O)O)cc(O)c3C(=O)c3c(O[C@@H]4O[C@H](CO)[C@@H](O)[C@H](O)[C@H]4O)cccc31)c1cccc(O[C@@H]3O[C@H](CO)[C@@H](O)[C@H](O)[C@H]3O)c1C2=O [Sennoside A]

>  <EXPERIMENTAL_TARGET>
FHV-1 gB (Feline herpesvirus 1)

>  <CMP>
<

>  <koff (s⁻¹)>
1e-07

$$$$
